Hello, the source for this data is the supplement of paper PMC10567573, in case you need it.

variants and their reported protein stability index
B1: VPS39 (parent)
chain: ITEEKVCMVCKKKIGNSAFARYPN

- Variants of: B1
- TEST DESCRIPTION: protein stability index of a GFP-peptide fusion (GPS, HEK-293T) (PSI 1-6); higher = more stable;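 note: lentivirally expressed fusions sorted by FACS into six bins by GFP to DsRed ratio, PSI derived from sequencing read proportions per bin multiplied by bin number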
- RUN CONDITIONS: c terminus: a fixed tail appended
Lab note: jot down the number only; don't add units.

Below are worked cases with known answers.
INSERT INTO results (variant, reading) VALUES
  ('K5H', 2.17),
  ('E4K', 1.86),
  ('R21H', 2.99);

Field request: protein stability index | item: N16T
2.77

Can you look up the measured protein stability index of E4C for me?
1.57

// protein stability index lookup, key: C7S
2.98

Reported protein stability index, variant K5Q : ____
2.42

Please give the measured protein stability index for this variant: E3I
3

// protein stability index lookup, key: K5G
2.33

Can you look up the measured protein stability index of K11T for me?
2.2

What measured protein stability index goes with S17C ?
2.67

// returns reported protein stability index for input E4V
1.91
